- System: KATOIII (Gastric Carcinoma);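 further: after 72 h of two-drug dosing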
- measurement.notes: Bliss excess, mean over the matrix (fraction); higher = more synergy
Recorded Bliss excess by entry

molecule	target.of.assay	Bliss excess
Cc1c2c(nn1C)CSCc1cc(n(C)n1)CSc1cc(c3ccccc3c1)OCCCc1c(C(=O)O)n(C)c3c-2c(Cl)ccc13 [AZD5991] + Nc1ccn([C@@H]2O[C@H](CO)[C@@H](O)C2(F)F)c(=O)n1 [Gemcitabine] (first compound max 1 µM, 7x7, partner max 0.3 µM)	KATOIII (Gastric Carcinoma)	0.0444
CN(CCO)CC[C@H](CSc1ccccc1)Nc1ccc(S(=O)(=O)NC(=O)c2ccc(N3CCC([C@@H](O)c4ccccc4-c4ccc(Cl)cc4)CC3)cc2)cc1S(=O)(=O)C(F)(F)F [AZD4320] + CC(=O)O[C@H]1C(=O)[C@@]2(C)[C@H]([C@H](OC(=O)c3ccccc3)[C@]3(O)C[C@H](OC(=O)[C@H](O)[C@@H](NC(=O)c4ccccc4)c4ccccc4)C(C)=C1C3(C)C)[C@]1(OC(C)=O)CO[C@@H]1C[C@@H]2O [Paclitaxel] (first compound max 1 µM, 7x7, partner max 3 µM)	KATOIII (Gastric Carcinoma)	0.168
CN(CCO)CC[C@H](CSc1ccccc1)Nc1ccc(S(=O)(=O)NC(=O)c2ccc(N3CCC([C@@H](O)c4ccccc4-c4ccc(Cl)cc4)CC3)cc2)cc1S(=O)(=O)C(F)(F)F [AZD4320] + CCN(CCO)CCCOc1ccc2c(Nc3cc(CC(=O)Nc4cccc(F)c4)[nH]n3)ncnc2c1 [AZD2811] (first compound max 1 µM, 7x7, partner max 1 µM)	KATOIII (Gastric Carcinoma)	-0.0434

Reference for the values: the supplement of paper PMC11061612
